Data credit: the supplement of paper PMC10567573

B1: SLC6A17 (parent)
chain: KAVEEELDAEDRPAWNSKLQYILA

Variants of: B1
Assay: protein stability index of a GFP-peptide fusion (GPS, HEK-293T) (PSI 1-6); higher = more stable;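 further: lentivirally expressed fusions sorted by FACS into six bins by GFP to DsRed ratio, PSI derived from sequencing read proportions per bin multiplied by bin number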
Details: c terminus: a fixed tail appended

{"columns": ["sequence chain", "protein stability index"],
 "data": [
  ["KAVEEELDAEDRPAWNSKLQYILS", 2.82],
  ["KAVEEELDAEDRPAWNSKMQYILA", 2.8],
  ["KAVEEELDAWDRPAWNSKLQYILA", 1.76],
  ["KAVEEELLAEDRPAWNSKLQYILA", 1.77],
  ["KAVEEECDAEDRPAWNSKLQYILA", 3.5],
  ["KAVEEELDAEDRPGWNSKLQYILA", 2.35],
  ["KAVEEELDAEDWPAWNSKLQYILA", 2.19],
  ["KAVEEELDAESRPAWNSKLQYILA", 1.98],
  ["KAVEEELDAEDRPEWNSKLQYILA", 3.08],
  ["KAVEEELDAEDRPAWNSRLQYILA", 2.69],
  ["KAVEEELQAEDRPAWNSKLQYILA", 2.25],
  ["KAVEEELDAEDRPAWNSKLQYHLA", 4.5],
  ["KAVEEELYAEDRPAWNSKLQYILA", 2.08],
  ["KAVEEELDAEDRPAWNSKLQYILP", 3.25],
  ["KAVKEELDAEDRPAWNSKLQYILA", 2.52]
]}
